# Tested on: PXR:RXRa (NR concentration 270 nM, RXRa partner concentration 90 nM)
# experiment_summary: PBM binding z-score (relative to random genomic background probes); higher = stronger binding; sequences stand for … in GC…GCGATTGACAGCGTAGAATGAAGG
Rule: PBM binding z-score under 1 gives -1, otherwise 1.

Solved cases (8 shown):
> print(dat)
                  biopolymer.sequence  category
1  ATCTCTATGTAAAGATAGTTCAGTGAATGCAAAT        -1
2  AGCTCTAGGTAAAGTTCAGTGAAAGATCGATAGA         1
3  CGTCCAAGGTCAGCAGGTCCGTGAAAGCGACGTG         1
4  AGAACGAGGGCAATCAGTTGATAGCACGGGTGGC         1
5  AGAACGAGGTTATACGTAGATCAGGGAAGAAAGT        -1
6  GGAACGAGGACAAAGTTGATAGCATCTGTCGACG        -1
7  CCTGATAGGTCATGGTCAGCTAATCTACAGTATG         1
8  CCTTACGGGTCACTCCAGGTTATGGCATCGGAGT         1

IN: Confirm if PBM binding z-score reported for the sequence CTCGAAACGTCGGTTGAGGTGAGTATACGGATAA is 1 or above.
OUT: -1

IN: Determine whether this sequence has PBM binding z-score no lower than 1: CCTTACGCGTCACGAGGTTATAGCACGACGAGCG
OUT: 1

IN: Evaluate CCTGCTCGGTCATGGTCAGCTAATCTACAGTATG : PBM binding z-score at minimum 1?
OUT: -1

###

The sequences listed here are annotated with their PBM binding z-score.
# Tested on: RXRa homodimer (NR concentration 180 nM)
# experiment_summary: PBM binding z-score (relative to random genomic background probes); higher = stronger binding; sequences stand for … in GC…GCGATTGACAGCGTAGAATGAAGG
Reply with the value as a number alone.

// known answers, use as guide
> print(dat)
                  biopolymer.sequence    quantity.measured  meas.value
1  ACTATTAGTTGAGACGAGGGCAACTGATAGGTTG  PBM binding z-score       0.797
2  CCTACCGGGCCAAAAAGGTCATTGATGCCGATAA  PBM binding z-score         4.6
3  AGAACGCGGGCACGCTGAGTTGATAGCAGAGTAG  PBM binding z-score       0.141
4  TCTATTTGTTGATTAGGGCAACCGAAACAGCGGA  PBM binding z-score       0.492
5  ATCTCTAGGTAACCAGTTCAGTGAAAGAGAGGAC  PBM binding z-score       0.791

IN: Record request: PBM binding z-score value, item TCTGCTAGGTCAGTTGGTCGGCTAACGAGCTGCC
OUT: 0.902

IN: # input sequence: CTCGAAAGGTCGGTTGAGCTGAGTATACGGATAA ; wanted: its PBM binding z-score
OUT: 1.74

IN: Given the sequence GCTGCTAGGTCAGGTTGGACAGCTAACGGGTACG , what is its reported PBM binding z-score?
OUT: 1.06

IN: Which PBM binding z-score value belongs to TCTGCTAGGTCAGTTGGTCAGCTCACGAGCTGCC ?
OUT: 1.15
